# Target: human MCH-1 receptor (Homo sapiens)
# Construct: expressed in transfected cells; host or cells: transiently transfected COS-7 cells or stably transfected CHO cells (pcDNA3.1)
# Sequence (Q99705 whole entry): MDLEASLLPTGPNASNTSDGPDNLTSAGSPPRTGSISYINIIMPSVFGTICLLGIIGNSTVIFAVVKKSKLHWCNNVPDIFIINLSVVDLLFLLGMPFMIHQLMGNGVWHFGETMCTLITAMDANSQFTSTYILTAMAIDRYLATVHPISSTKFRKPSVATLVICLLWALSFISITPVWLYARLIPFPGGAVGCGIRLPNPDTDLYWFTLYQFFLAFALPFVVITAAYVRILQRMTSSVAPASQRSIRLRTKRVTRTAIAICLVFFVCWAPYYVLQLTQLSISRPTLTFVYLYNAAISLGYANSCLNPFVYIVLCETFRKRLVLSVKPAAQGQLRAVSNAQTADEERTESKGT
# Method Description: Radioligand binding assay ([125I]-MCH competition, whole cells)
# Test Conditions: competition with [125I]-MCH; COS-7 or CHO cells expressing human MCH-1 receptor
Measured Parameter: IC50 (nM)

I = COc1cc(NC(=O)c2ccc(-c3ccccc3)cc2)ccc1C(=O)NCCN(C)C [Ex 2]
II = CCN(CC)CCNC(=O)c1ccc(N(C)C(=O)Nc2ccc(Oc3ccccc3)cc2)cc1OC [Ex 33]
III = COc1cc(NC(=O)Nc2cccc(Nc3ccccc3)c2)ccc1C(=O)NCCCN1CCCCC1 [Ex 89]
IV = COc1cc(NC(=O)Nc2ccc3c(c2)CCC3)ccc1C(=O)NC1CCN(Cc2ccccc2)CC1 [Ex 137]
V = CCCCN(CCCC)CCCNC(=O)c1ccc(N(C)C(=O)Nc2ccc(Oc3ccccc3)cc2)cc1OC [Ex 134]
Given 5 compounds, produce a descending ranking by IC50. Please, when replying, give the labels in the order that was requested.
I, IV, V, II, III

Data origin: patent US20060235035A1
